- System: mPTP
- Test summary: mPTP activity (Ca2+ retention) assay in isolated rat brain mitochondria
- Type: biochemical
- Test context: isolated rat brain mitochondria; Fluo5N fluorescence at 10 min after Ca2+ (75 μM) bolus
Attribute: mPTP Rat brain pIC50
API doc: respond with a numeric literal and nothing else, no unit.

O=C(c1cc(O)no1)N1CC(c2ccc(F)cc2)C2(CCC2)C1 (single isomer, unassigned) [Example 36a]	7.53

Supply mPTP Rat brain pIC50 value. Item: O=C(c1cc(O)no1)N1CC(c2cccc(F)c2F)C2(CCC2)C1 (single isomer, unassigned) [Example 39a] 7.41

====

Attribute: mPTP Rat brain pIC50
- Test system: mPTP
- Test summary: mPTP activity (Ca2+ retention) assay in isolated rat brain mitochondria
- Format: biochemical
- Test context: isolated rat brain mitochondria; Fluo5N fluorescence at 10 min after Ca2+ (75 μM) bolus
API doc: respond with a numeric literal and nothing else, no unit.

O=C(c1cnn[nH]1)N1CC(c2ccccc2)C2(CCC2)C1 (single isomer, unassigned) [Example 14a]	5.21
O=C(c1cncc(=O)[nH]1)N1CC(c2ccc(F)c(F)c2)C2(CCC2)C1 (single isomer, unassigned) [Example 45b]	6.78
O=C(c1noc(=O)[nH]1)N1CC(c2ccc(F)c(F)c2)C2(CCC2)C1 (single isomer, unassigned) [Example 47a]	7
O=C(c1cc(O)no1)N1CC(c2ccc(F)c(F)c2)C2(CCC2)C1 (single isomer, unassigned) [Example 46b]	7.03

Supply mPTP Rat brain pIC50 value. Item: Cn1nc(C(=O)N2C[C@@H](c3ccccc3)C3(CCC3)C2)[nH]c1=O (single isomer, unassigned) 6.55

Supply mPTP Rat brain pIC50 value. Item: O=C(c1cncc(=O)[nH]1)N1CC(c2cccc(Cl)c2F)C2(CCC2)C1 (single isomer, unassigned) [Example 33a] 7.32

Supply mPTP Rat brain pIC50 value. Item: CCC1CN(C(=O)c2cncc(=O)[nH]2)CC1c1ccccc1 (single isomer, unassigned) [Example 15c] 5.93

====

- System: mPTP
- Test summary: mPTP activity (Ca2+ retention) assay in isolated rat liver mitochondria
- Assay type: biochemical
- Test context: isolated rat liver mitochondria; Fluo5N fluorescence at 10 min after CaCl2 (75 μM) bolus; DMSO 0%, 5 μM cyclosporin A 100% inhibition
Label true (1) when mPTP Rat liver pIC50* >= 5; otherwise false (0).

COc1ccc(C2CN(C(=O)c3cncc(=O)[nH]3)CC23CCC3)cc1 (single isomer, unassigned) [Example 28b]	false (0)
O=C(c1noc(=O)[nH]1)N1CC(c2ccc(F)cc2F)C2(CCC2)C1 (single isomer, unassigned) [Example 48a]	true (1)
O=C(c1noc(=O)[nH]1)N1CC(c2cccc(F)c2F)C2(CCC2)C1 (single isomer, unassigned) [Example 44a]	true (1)
O=C(c1cncc(=O)[nH]1)N1CC(c2cccc(Cl)c2)C2(CCC2)C1 (single isomer, unassigned) [Example 31b]	false (0)
CC1CN(C(=O)c2cncc(=O)[nH]2)CC1c1ccccc1 (stereo not shown)	false (0)

Please indicate if the recorded mPTP Rat liver pIC50* for O=C(c1cc(O)no1)N1CC(c2ccc(F)c(F)c2)C2(CCC2)C1 (single isomer, unassigned) [Example 46b] meets or exceeds 5. false (0)

====

- Tested on: mPTP
- Test summary: mPTP activity (Ca2+ retention) assay in isolated rat brain mitochondria
- Format: biochemical
- Test context: isolated rat brain mitochondria; Fluo5N fluorescence at 10 min after Ca2+ (75 μM) bolus
Attribute: mPTP Rat brain pIC50
API doc: respond with a numeric literal and nothing else, no unit.

Supply mPTP Rat brain pIC50 value. Item: O=C(c1cc(O)no1)N1CC(c2ccccc2)C2(CCC2)C1 (single isomer, unassigned) [Example 23a] 7.22

Supply mPTP Rat brain pIC50 value. Item: O=C(c1cc(O)no1)N1CC(c2ccc(F)cc2F)C2(CCC2)C1 (single isomer, unassigned) [Example 42a] 6.99

Supply mPTP Rat brain pIC50 value. Item: O=C(c1cncc(O)c1)N1CC(c2ccccc2)C2(CCC2)C1 (stereo not shown) [Example 1a] 6.73

Supply mPTP Rat brain pIC50 value. Item: O=C(c1ccnc(=O)[nH]1)N1CC(c2ccccc2)C2(CCC2)C1 (single isomer, unassigned) [Example 27a] 6.34

Supply mPTP Rat brain pIC50 value. Item: N#Cc1ccc(C2CN(C(=O)c3cncc(=O)[nH]3)CC23CCC3)cc1 (single isomer, unassigned) [Example 20a] 4.64

# credit: patent US20260226031A1
